testedSystem: PlcR (Bacillus thuringiensis, UniProt Q45782)
Sequence (Q45782 1-285): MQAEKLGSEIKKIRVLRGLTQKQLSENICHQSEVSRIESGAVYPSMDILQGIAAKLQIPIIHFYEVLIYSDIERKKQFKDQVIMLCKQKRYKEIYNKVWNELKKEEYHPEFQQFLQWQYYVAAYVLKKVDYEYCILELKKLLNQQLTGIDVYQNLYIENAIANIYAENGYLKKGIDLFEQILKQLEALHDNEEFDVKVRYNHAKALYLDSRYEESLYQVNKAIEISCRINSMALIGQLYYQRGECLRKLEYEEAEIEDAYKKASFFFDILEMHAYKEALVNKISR
pKd: −log10 of the molar value. Peptide text beside a SMILES is read from it.
experimentalEndpoint: pKd

I: CC(C)C[C@H](NC(=O)[C@H](CC(=O)O)NC(=O)[C@H](C)N)C(=O)N1CCC[C@H]1C(=O)N[C@@H](Cc1ccccc1)C(=O)N[C@@H](CCC(=O)O)C(=O)N[C@@H](Cc1ccccc1)C(=O)O [ADLPFEF] (H-ADLPFEF-OH)
II: CC(C)C[C@H](N)C(=O)N1CCC[C@H]1C(=O)N[C@@H](Cc1ccccc1)C(=O)N[C@@H](CCC(=O)O)C(=O)N[C@@H](Cc1ccccc1)C(=O)O [LPFEF] (H-LPFEF-OH)
Hi, I'm comparing two records. Which one has the lower pKd, I or II ? Reply with the label of the item you choose.
II
(II: 4.39, I: 4.60)
